residual activity values by entry
Molecular target: MKNK2 (human) (UniProt Q9HBH9)
Sequence (Q9HBH9 whole entry, looked up): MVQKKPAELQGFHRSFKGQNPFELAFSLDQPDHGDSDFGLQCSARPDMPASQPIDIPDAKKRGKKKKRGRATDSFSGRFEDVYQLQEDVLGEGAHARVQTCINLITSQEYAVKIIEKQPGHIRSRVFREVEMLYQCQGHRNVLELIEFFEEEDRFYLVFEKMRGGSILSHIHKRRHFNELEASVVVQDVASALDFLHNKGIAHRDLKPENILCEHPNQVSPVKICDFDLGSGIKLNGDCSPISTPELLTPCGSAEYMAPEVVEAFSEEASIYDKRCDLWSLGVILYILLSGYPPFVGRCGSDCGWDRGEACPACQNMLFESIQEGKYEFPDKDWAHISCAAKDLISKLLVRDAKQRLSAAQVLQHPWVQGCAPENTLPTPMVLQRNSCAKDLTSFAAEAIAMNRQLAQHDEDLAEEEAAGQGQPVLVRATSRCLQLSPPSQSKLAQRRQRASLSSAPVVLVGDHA
Assay: radiometric filter-binding kinase assay
Conditions: compound 10.0 µM
reported.endpoint: residual activity (%)

INSERT INTO results (molecule, measured_target, result_number) VALUES
  ('O=S(=O)(c1ccc(F)c2nonc12)N1CCN(c2ncc(C(F)(F)F)cc2Cl)CC1', 'MKNK2 (human) (UniProt Q9HBH9)', 92),
  ('Cc1nc(-c2ccc(OCC(C)C)c(C#N)c2)sc1C(=O)O', 'MKNK2 (human) (UniProt Q9HBH9)', 91),
  ('CCCC(CCC)C(=O)O', 'MKNK2 (human) (UniProt Q9HBH9)', 106),
  ('Cn1nc(Nc2ccc(F)cc2)c2c(N)ncnc21', 'MKNK2 (human) (UniProt Q9HBH9)', 103),
  ('CN1C(=O)[C@@H](Cc2c[nH]c3ccccc23)NC1=S', 'MKNK2 (human) (UniProt Q9HBH9)', 102),
  ('O=C(NOC[C@H](O)CO)c1ccc(F)c(F)c1Nc1ccc(I)cc1Cl', 'MKNK2 (human) (UniProt Q9HBH9)', 110),
  ('Cc1ccc(=O)n(-c2ccccc2)c1', 'MKNK2 (human) (UniProt Q9HBH9)', 93),
  ('Nc1cccc2c1CN(C1CCC(=O)NC1=O)C2=O (stereo unspecified)', 'MKNK2 (human) (UniProt Q9HBH9)', 89),
  ('CC1=C(CO)C(=O)O[C@@H]([C@@H](C)[C@H]2CC[C@H]3[C@@H]4C[C@H]5O[C@]56[C@@H](O)C=CC(=O)[C@]6(C)C4CC[C@]23C)C1 (stereo partly specified)', 'MKNK2 (human) (UniProt Q9HBH9)', 126),
  ('Cc1ccc2c(c1)C(=O)[C@@]1(O)CCN(c3ccccc3)C1=N2', 'MKNK2 (human) (UniProt Q9HBH9)', 104),
  ('NC(=O)c1cc(-c2ccnc(NC3CCCCC3)c2)nc(N2CCNCC2)c1', 'MKNK2 (human) (UniProt Q9HBH9)', 6);

====

Target: UniProt:P53779
Sequence (P53779 whole entry, looked up): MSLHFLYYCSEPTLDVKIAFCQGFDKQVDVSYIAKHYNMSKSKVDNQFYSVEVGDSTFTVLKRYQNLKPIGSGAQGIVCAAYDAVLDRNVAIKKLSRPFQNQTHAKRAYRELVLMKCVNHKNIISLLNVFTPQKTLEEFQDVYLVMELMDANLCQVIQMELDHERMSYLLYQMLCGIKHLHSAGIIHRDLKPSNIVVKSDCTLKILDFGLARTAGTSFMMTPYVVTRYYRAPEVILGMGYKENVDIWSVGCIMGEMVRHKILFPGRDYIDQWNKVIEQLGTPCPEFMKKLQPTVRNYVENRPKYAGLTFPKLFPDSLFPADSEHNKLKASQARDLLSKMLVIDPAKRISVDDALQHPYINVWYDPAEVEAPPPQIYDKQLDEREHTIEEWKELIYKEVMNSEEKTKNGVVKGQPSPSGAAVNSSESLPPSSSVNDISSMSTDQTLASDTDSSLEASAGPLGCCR
Assay: radiometric filter-binding kinase assay
Conditions: compound 0.01 µM
Overview of recorded residual activity for various compounds
reported.endpoint: residual activity (%)

INSERT INTO assay_data (compound, measured_target, reported_endpoint, quantity_unit, result_number) VALUES
  ('O=C(Nc1nc2cc(C(F)(F)F)cc(NC3CC3)n2n1)c1cccnc1', 'UniProt:P53779', 'residual activity', '%', 85),
  ('CNc1nc(-c2ccc3c(N)n[nH]c3c2)cc(N2C[C@@H](C(=O)NC3CCCCC3)CC[C@H]2C)n1', 'UniProt:P53779', 'residual activity', '%', 106),
  ('COc1ccc(N(C(=O)Nc2c(C)cccc2C)c2cc(Nc3ccc(N4CCN(C)CC4)cc3)ncn2)c(OC)c1', 'UniProt:P53779', 'residual activity', '%', 93),
  ('CNC(=O)C1[C@H]2O[C@@](C)([C@@H]1N)n1c3ccccc3c3c4c(c5c6ccccc6n2c5c31)C(=O)NC4 (stereo not given in full)', 'UniProt:P53779', 'residual activity', '%', 65),
  ('COc1cc(O)c2c(c1)[C@H]1OC1C[C@H](O)[C@H](O)C(=O)/C=C\C[C@H](C)OC2=O (stereo not given in full)', 'UniProt:P53779', 'residual activity', '%', 89);

====

Biological target: UniProtKB P51812
Sequence (P51812 whole entry, looked up): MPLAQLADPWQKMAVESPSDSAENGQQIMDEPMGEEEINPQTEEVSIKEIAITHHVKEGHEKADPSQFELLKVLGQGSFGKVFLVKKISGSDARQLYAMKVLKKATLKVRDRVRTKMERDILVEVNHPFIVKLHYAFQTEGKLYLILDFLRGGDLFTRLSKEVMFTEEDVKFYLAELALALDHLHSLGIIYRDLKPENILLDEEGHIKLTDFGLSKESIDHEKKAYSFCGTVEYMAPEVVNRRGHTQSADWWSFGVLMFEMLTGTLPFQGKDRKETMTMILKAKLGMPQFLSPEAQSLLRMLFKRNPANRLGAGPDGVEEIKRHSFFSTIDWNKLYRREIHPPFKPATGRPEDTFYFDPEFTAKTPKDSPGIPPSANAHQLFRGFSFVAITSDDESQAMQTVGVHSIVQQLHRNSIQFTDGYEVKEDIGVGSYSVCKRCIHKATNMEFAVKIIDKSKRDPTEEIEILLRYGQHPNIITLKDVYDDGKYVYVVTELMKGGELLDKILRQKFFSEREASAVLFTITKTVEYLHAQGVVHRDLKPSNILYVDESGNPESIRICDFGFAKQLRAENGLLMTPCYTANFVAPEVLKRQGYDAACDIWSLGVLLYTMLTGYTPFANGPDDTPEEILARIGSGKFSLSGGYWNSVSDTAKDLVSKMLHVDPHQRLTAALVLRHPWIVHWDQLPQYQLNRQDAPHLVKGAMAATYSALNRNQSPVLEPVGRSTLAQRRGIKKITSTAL
Assay: radiometric filter-binding kinase assay
Settings: compound 10.0 µM
Let's look at some compounds and their measured residual activity.
reported.endpoint: residual activity (%)

INSERT INTO results (compound, result_number) VALUES
  ('O=S(=O)(c1ccc(F)c2nonc12)N1CCN(c2ncc(C(F)(F)F)cc2Cl)CC1', 86),
  ('COc1cc2ncn(-c3cc(OCc4ccccc4S(C)(=O)=O)c(C#N)s3)c2cc1OC', 57),
  ('FC(F)(F)c1ccc(-c2ccc(Oc3cncc4sc(-c5nn[nH]n5)cc34)cc2)cc1', 88),
  ('O=C1Nc2nc(-c3c(O)cccc3OCC3CC3)cc(C3CCCNC3)c2CO1 (centres undefined)', 53);

====

Target: ULK1 (human) (UniProt O75385)
Sequence (O75385 whole entry, looked up): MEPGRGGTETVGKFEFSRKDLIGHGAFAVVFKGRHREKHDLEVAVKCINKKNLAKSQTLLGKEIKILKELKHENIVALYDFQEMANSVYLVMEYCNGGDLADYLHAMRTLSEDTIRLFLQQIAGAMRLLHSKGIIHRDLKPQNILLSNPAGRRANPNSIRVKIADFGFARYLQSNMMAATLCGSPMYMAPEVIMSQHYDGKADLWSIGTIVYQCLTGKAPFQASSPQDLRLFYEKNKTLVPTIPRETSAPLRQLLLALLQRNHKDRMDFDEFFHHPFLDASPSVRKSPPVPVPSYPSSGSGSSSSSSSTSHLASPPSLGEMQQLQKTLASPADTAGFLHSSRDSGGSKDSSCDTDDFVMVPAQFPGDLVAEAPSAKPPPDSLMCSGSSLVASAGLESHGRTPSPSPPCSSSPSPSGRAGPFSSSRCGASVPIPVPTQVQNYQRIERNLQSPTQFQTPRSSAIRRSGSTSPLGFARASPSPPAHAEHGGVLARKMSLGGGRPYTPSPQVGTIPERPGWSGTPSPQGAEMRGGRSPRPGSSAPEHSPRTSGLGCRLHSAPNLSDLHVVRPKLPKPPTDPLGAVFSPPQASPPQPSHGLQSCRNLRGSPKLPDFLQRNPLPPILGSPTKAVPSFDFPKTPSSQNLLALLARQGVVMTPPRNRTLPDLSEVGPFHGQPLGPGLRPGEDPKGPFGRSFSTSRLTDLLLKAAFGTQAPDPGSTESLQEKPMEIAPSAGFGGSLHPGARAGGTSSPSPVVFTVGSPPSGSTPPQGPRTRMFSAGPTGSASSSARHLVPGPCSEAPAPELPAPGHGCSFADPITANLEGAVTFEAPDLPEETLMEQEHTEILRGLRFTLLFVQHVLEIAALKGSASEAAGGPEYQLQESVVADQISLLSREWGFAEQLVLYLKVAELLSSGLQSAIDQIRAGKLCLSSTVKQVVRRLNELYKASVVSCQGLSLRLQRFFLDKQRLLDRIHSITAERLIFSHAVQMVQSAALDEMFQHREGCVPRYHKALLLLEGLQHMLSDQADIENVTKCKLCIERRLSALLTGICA
Assay: radiometric filter-binding kinase assay
Details: compound 1.0 µM
# strict inequality: residual activity < 90% yields yes (1), everything else yields no (0)

INSERT INTO measurements (compound, label_class) VALUES
  ('Nc1cccc2c1CN(C1CCC(=O)NC1=O)C2=O (stereo not drawn)', 'no (0)'),
  ('Cc1cc(NC(=O)c2cccc(NC(=O)/C=C/CN(C)C)c2)ccc1Nc1nccc(-c2cccnc2)n1', 'yes (1)'),
  ('CN(C)C/C=C/C(=O)Nc1cccc(C(=O)Nc2ccc(Nc3nccc(-c4cccnc4)n3)cc2)c1', 'yes (1)'),
  ('CC1=C(CO)C(=O)O[C@@H]([C@@H](C)[C@H]2CC[C@H]3[C@@H]4C[C@H]5O[C@]56[C@@H](O)C=CC(=O)[C@]6(C)C4CC[C@]23C)C1 (stereo partly drawn)', 'no (0)'),
  ('CNC(=O)C1[C@H]2O[C@@](C)([C@@H]1N)n1c3ccccc3c3c4c(c5c6ccccc6n2c5c31)C(=O)NC4 (stereo partly drawn)', 'yes (1)'),
  ('CCNc1nc(Nc2cc(F)c(C(=O)N3CCOCC3)cc2OC)ncc1C(F)(F)F', 'no (0)');

====

Biological target: UniProt:O14757
Sequence (O14757 whole entry, looked up): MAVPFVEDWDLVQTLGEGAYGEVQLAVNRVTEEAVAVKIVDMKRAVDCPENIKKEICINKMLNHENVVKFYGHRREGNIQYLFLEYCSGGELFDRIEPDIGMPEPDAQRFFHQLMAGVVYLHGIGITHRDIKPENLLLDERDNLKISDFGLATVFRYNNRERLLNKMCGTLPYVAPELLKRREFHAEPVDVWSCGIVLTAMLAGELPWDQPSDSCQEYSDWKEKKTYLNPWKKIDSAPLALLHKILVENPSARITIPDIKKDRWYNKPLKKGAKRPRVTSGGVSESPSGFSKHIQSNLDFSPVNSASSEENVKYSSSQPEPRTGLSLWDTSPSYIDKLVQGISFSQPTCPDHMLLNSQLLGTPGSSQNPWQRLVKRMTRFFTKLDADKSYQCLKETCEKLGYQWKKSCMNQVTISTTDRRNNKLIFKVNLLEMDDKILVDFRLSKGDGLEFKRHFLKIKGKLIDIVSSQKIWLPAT
Assay: radiometric filter-binding kinase assay
Details: compound 100.0 µM
reported.endpoint: residual activity (%)

INSERT INTO assay_data (smiles_code, result_number) VALUES
  ('Cc1cc(N=Nc2cc(S(=O)(=O)O)c(C)cc2C)c(N)cc1O', 196),
  ('Cc1ccc2c(c1)C(=O)[C@@]1(O)CCN(c3ccccc3)C1=N2', 96),
  ('N#Cc1c(O)c2c(-c3ccc(-c4ccccc4O)cc3)csc2[nH]c1=O', 43),
  ('COC(=O)/C=C/C(=O)OC', 93);

====

Target: TAOK1 (human) (UniProt Q7L7X3)
Sequence (Q7L7X3 whole entry, looked up): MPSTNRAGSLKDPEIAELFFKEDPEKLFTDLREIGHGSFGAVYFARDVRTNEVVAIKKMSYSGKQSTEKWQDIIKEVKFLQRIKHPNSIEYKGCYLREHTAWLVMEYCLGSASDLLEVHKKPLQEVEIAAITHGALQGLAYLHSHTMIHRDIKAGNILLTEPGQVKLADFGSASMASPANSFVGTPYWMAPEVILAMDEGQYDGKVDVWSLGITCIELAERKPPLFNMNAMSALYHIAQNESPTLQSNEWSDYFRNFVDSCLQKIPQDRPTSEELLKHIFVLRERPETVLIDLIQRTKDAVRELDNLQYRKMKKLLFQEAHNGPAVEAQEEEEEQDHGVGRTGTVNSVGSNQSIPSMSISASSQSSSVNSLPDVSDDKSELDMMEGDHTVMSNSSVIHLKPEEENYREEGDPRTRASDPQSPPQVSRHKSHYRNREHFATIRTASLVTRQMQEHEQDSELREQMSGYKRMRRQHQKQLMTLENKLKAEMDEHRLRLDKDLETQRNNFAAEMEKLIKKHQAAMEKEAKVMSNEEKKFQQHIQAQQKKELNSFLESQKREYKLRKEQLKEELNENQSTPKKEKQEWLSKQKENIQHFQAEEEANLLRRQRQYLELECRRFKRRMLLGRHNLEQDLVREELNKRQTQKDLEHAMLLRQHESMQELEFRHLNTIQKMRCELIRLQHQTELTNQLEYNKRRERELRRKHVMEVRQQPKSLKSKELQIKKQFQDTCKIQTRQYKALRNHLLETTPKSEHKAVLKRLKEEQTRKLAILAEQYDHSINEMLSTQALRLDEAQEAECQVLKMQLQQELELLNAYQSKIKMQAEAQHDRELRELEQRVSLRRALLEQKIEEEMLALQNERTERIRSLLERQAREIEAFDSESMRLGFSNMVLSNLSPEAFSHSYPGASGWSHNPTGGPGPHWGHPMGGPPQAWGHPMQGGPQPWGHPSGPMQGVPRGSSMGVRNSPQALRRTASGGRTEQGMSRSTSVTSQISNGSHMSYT
Assay: radiometric filter-binding kinase assay
Settings: compound 10.0 µM
# maps each entry to its residual activity
reported.endpoint: residual activity (%)

INSERT INTO measurements (smiles_code, result_number) VALUES
  ('COC(=O)/C=C/C(=O)OC', 91),
  ('COc1cc(C(=O)N2CCOCC2)c(F)cc1Nc1ncc(C(F)(F)F)c(NC2CC2)n1', 80),
  ('CCNc1nc(Nc2cc(F)c(C(=O)N3CCOCC3)cc2OC)ncc1C(F)(F)F', 102),
  ('CNc1nc(-c2ccc3c(N)n[nH]c3c2)cc(N2C[C@@H](C(=O)NC3CCCCC3)CC[C@H]2C)n1', 96),
  ('NC1(c2ccc(-c3nc4ccn5c(=O)[nH]nc5c4cc3-c3ccccc3)cc2)CCC1', 85),
  ('Cc1ccc(-c2ccc3c(ccc4sc5c(c43)NC[C@@H](C)NC5=O)n2)cn1', 70),
  ('O=S(=O)(c1ccc(F)c2nonc12)N1CCN(c2ncc(C(F)(F)F)cc2Cl)CC1', 98),
  ('N#Cc1c(O)c2c(-c3ccc(-c4ccccc4O)cc3)csc2[nH]c1=O', 83),
  ('Cc1nc(-c2ccc(OCC(C)C)c(C#N)c2)sc1C(=O)O', 101),
  ('Oc1ccc(/C=C/c2cc(O)cc(O)c2)cc1', 32);

====

Target: CDK2 CCNA2 (human) (UniProt P20248+P24941)
Assay: radiometric filter-binding kinase assay
Conditions: compound 10.0 µM
reported.endpoint: residual activity (%)

INSERT INTO measurements (compound, reported_endpoint, result_number) VALUES
  ('O=C(Nc1cccnc1)c1cc(-c2ccnc(F)c2)ccc1OCc1ccccc1', 'residual activity', 117),
  ('Nc1cccc2c1CN(C1CCC(=O)NC1=O)C2=O (stereo unspecified)', 'residual activity', 87),
  ('CC1=C(CO)C(=O)O[C@@H]([C@@H](C)[C@H]2CC[C@H]3[C@@H]4C[C@H]5O[C@]56[C@@H](O)C=CC(=O)[C@]6(C)C4CC[C@]23C)C1 (stereo partly specified)', 'residual activity', 117),
  ('Cc1ccc(=O)n(-c2ccccc2)c1', 'residual activity', 97),
  ('Oc1ccc(/C=C/c2cc(O)cc(O)c2)cc1', 'residual activity', 59),
  ('C=CC(=O)N1CCC[C@@H](n2nc(-c3ccc(Oc4ccccc4)cc3)c3c(N)ncnc32)C1', 'residual activity', 84),
  ('NC(=O)c1ccc(-c2ccc(Oc3cncc4sc(-c5nn[nH]n5)cc34)cc2)cc1', 'residual activity', 105),
  ('Cc1cc(SCc2sc(-c3ccc(C(F)(F)F)cc3)nc2C)ccc1OCC(=O)O', 'residual activity', 81),
  ('O=C(NOC[C@H](O)CO)c1ccc(F)c(F)c1Nc1ccc(I)cc1Cl', 'residual activity', 109),
  ('Oc1ccc2ccccc2c1SSc1c(O)ccc2ccccc12', 'residual activity', 88),
  ('CC(C)(C#N)c1ccc(N2C(=O)OCc3cnc4ccc(-c5cnc6ccccc6c5)cc4c32)cc1', 'residual activity', 85);
